Reference for the values: patent US20250320305A1

- tested_on: T1, human CD40 extracellular domain with C-terminal His-AviTag (human, UniProt P25942 21-193)
- T1 construct: not shown: C-terminal His-AviTag
- experimental_protocol: SPR, antibody captured, CD40 ECD analyte;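 further: biacore SPR at 25 °C in PBS-T pH 7.4, CD40 ECD analyte from 300 nM in 1:3 series, 300 s association, up to 1200 s dissociation, double-referenced, Langmuir 1:1 fit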
observed_property: kon (M⁻¹ s⁻¹)
Numeric answer only, unit M⁻¹ s⁻¹ assumed.

| binder | unit_symbol | kon |
| --- | --- | --- |
| P1AE0407, humanized anti-CD40 antibody VH2d/VL2b, huIgG1_LALA_PG (antibody, V domains shown, huIgG1 with effector silent Fc (P329G, L234A, L235A); also called VL2b/VH2d) VH: EVQLLESGGGLVQPGGSLRLSCAASGYSFTGYYIHWVRQAPGKGLEWVGRVIPNAGGTSYGDSVKGRFTISVDNSKNTAYLQMNSLRAEDTAVYYCAREGIYWWGQGTTVTVSS VL: DIQMTQSPSSLSASVGDRVTITCRSSQSLVHSNGNTFLHWYQQKPGQSPKLLIYTVSNRFSGVPSRFSGSGSGTDFTLTISSLQPEDFATYFCSQTTHVPWTFGGGTKVEIK | M⁻¹ s⁻¹ | 1.19e+06 |

Shift focus to the following entry.
Request the reported kon associated with P1AE0818, humanized anti-CD40 antibody VH1c/VL1c, huIgG1_LALA_PG (antibody, V domains shown, huIgG1 with effector silent Fc (P329G, L234A, L235A)) VH: QVQLVQSGAEVKKPGASVKVSCKASGYSFTGYYIHWVRQAPGQSLEWMGRVIPNAGGTSYNQKFKGRVTLTVDKSISTAYMELSRLRSDDTAVYYCAREGIYWWGHGTTVTVSS VL: DVVVTQTPLSLSVTPGQPASISCRSSQSLVHSNGNTFLHWYLQKPGQSPQLLIYTVSNRFSGVPDRFSGSGSGTDFTLKISRVEAEDVGVYFCSQTTHVPWTFGGGTKVEIK 2.63e+06
